Test system: Rattus norvegicus
Assay: Antifertility activity in Wistar rat assessed as inhibition of preimplantive gestation by measuring resorptions at 40 mg/kg, po administered in days 9 to 12 of pregnancy measured on day 21
Assay type: functional
Parameters: scale not given: the % may be the effect or the level left
// values below are reported Activity
Answer format: numeric, % implied, no suffix.

For orientation, consider the following solved cases.
• C[C@]12CC/C(=N\Oc3ccccn3)C[C@@H]1CC[C@@H]1[C@@H]2CC[C@]2(C)[C@@H](O)CC[C@@H]12 = 0
• CC(=O)O[C@H]1CC[C@H]2[C@@H]3CC[C@H]4C/C(=N/Oc5ccccc5[N+](=O)[O-])CC[C@]4(C)[C@H]3CC[C@]12C = 4

Field: next compound
Entry C[C@]12CC/C(=N\Oc3ccc([N+](=O)[O-])cc3[N+](=O)[O-])C[C@@H]1CC[C@@H]1[C@@H]2CC[C@]2(C)[C@@H](O)CC[C@@H]12 has what Activity? 8.2
